B1: 6YSE (parent)
chain: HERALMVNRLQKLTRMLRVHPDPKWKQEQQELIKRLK

# Variants of: B1
# ASSAY INFO: folding stability dG (cDNA display proteolysis); higher = more stable
# CONDITION NOTES: PBS, room temperature
Would you please tag the item Y when its folding stability dG is 0.9 kcal/mol or above, and N when it is below?

{"VARIANT ANNOTATION": "K26C", "CLASS LABEL": "N"}
{"VARIANT ANNOTATION": "L32W", "CLASS LABEL": "N"}

Check this variant for folding stability dG at or above 0.9 kcal/mol: H20T
Y

Test whether the variant E28Q records folding stability dG of 0.9 kcal/mol or higher.
N

Measured values drawn from the MegaScale stability set (Tsuboyama et al. 2023) for this set.
